Organism: Homo sapiens
assay_comment: Selectivity of Orexin type 2 receptor over Orexin type 1 receptor
measurement_type: Selectivity

Some compounds with known Selectivity results, for comparison:
{"columns": ["entry_smiles", "Selectivity"],
 "data": [
  ["CC1(C)OC[C@H](NC(=O)Nc2ccccc2-c2ccccc2Cl)[C@H](c2ccccc2)O1", 5],
  ["CC1(C)OC[C@H](NC(=O)Nc2ccc(Br)cc2Br)[C@H](c2ccccc2)O1", 600],
  ["CC1(C)OC[C@H](NC(=O)Nc2ccccc2I)[C@H](c2ccccc2)O1", "> 70"],
  ["CC1(C)OC[C@H](NC(=O)Nc2ccccc2C(F)(F)F)[C@H](c2ccccc2)O1", "> 100"],
  ["CC1(C)OC[C@H](NC(=O)Nc2ccc(Cl)cc2Cl)[C@H](c2ccccc2)O1", 100],
  ["CC1(C)OC[C@H](NC(=O)Nc2ccccc2)[C@H](c2ccccc2)O1", "> 20"],
  ["CC1(C)OC[C@H](NC(=O)Nc2ccccc2Cl)[C@H](c2ccccc2)O1", "> 100"],
  ["CC1(C)OC[C@H](NC(=O)c2ccc(Cl)cc2Cl)[C@H](c2ccccc2)O1", "> 50"],
  ["CC1(C)OC[C@H](NC(=O)Oc2ccccc2Cl)[C@H](c2ccccc2)O1", "> 6"]
]}

GET /value?item= CC1(C)OC[C@H](/N=C(\S)Nc2ccc(Cl)cc2Cl)[C@H](c2ccccc2)O1 &field=Selectivity returns > 50

---

In what follows, each item is paired with its pKi for Orexin/Hypocretin receptor type 1 (Homo sapiens).
pKi: −log10 of the molar value.

{"columns": ["entry_smiles", "target_system", "measurement"],
 "data": [
  ["CC1(C)OC[C@H](NC(=O)Nc2ccccc2-c2cccc(Cl)c2)[C@H](c2ccccc2)O1", "Orexin/Hypocretin receptor type 1 (Homo sapiens)", 6.30],
  ["CC1(C)OC[C@H](NC(=O)Nc2c(Cl)cccc2Cl)[C@H](c2ccccc2)O1", "Orexin/Hypocretin receptor type 1 (Homo sapiens)", "< 5.00"],
  ["Cc1ccc(Cl)c(NC(=O)N[C@H]2COC(C)(C)O[C@H]2c2ccccc2)c1", "Orexin/Hypocretin receptor type 1 (Homo sapiens)", "< 5.30"]
]}

Form field, pKi with Orexin/Hypocretin receptor type 1 (Homo sapiens), item CC1(C)OC[C@H](/N=C(\S)Nc2ccc(Cl)cc2Cl)[C@H](c2ccccc2)O1 : < 5.00

Form field, pKi with Orexin/Hypocretin receptor type 1 (Homo sapiens), item CC1(C)OC[C@H](/N=C(\S)Nc2ccccc2Br)[C@H](c2ccccc2)O1 : < 5.00

Form field, pKi with Orexin/Hypocretin receptor type 1 (Homo sapiens), item CC1(C)OC[C@H](NC(=O)Nc2cccc(Br)c2)[C@H](c2ccccc2)O1 : < 5.00

Form field, pKi with Orexin/Hypocretin receptor type 1 (Homo sapiens), item CC1(C)OC[C@H](NC(=O)Oc2ccccc2Cl)[C@H](c2ccccc2)O1 : < 5.00

Form field, pKi with Orexin/Hypocretin receptor type 1 (Homo sapiens), item Cc1ccc(NC(=O)N[C@H]2COC(C)(C)O[C@H]2c2ccccc2)c(C)c1 : < 5.00

Form field, pKi with Orexin/Hypocretin receptor type 1 (Homo sapiens), item CC1(C)OC[C@H](NC(=O)c2ccc(Cl)cc2Cl)[C@H](c2ccccc2)O1 : < 5.00

Form field, pKi with Orexin/Hypocretin receptor type 1 (Homo sapiens), item CC1(C)OC[C@H](NC(=O)Nc2ccccc2-c2cccnc2)[C@H](c2ccccc2)O1 : < 5.30

---

target_system: Orexin/Hypocretin receptor type 1 (Homo sapiens, UniProt O43613)
Sequence (O43613 whole entry): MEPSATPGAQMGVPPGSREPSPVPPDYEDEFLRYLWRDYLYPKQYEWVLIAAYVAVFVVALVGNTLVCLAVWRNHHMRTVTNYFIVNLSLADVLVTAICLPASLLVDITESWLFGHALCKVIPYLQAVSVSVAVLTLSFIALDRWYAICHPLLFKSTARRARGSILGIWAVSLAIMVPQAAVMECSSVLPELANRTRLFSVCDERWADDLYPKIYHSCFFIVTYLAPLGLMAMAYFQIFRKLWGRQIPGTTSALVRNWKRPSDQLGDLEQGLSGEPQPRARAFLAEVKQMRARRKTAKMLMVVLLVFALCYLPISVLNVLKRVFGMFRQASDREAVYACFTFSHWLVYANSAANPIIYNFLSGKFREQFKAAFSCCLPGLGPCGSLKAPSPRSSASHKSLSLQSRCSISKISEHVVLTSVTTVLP
Recorded pKi for the following compounds
Scale for pKi: -log10 of concentration given in mol/L; no unit attached.

{"columns": ["entry_smiles", "pKi"],
 "data": [
  ["CC1(C)OC[C@H](NC(=O)Nc2ccccc2Br)[C@H](c2ccccc2)O1", 5.70],
  ["CC1(C)OC[C@H](NC(=O)Nc2ccc(Br)cc2Br)[C@H](c2ccccc2)O1", 5.50],
  ["CC1(C)OC[C@H](NC(=O)Nc2ccccc2-c2ccccc2Cl)[C@H](c2ccccc2)O1", 6.90]
]}

Now for another entry.
GET /value?item= CC1(C)OC[C@H](NC(=O)Nc2ccccc2-c2ccccc2)[C@H](c2ccccc2)O1 &field=pKi returns 6.30

---

Recorded Selectivity for the following molecules
Species: Homo sapiens
assay_comment: Selectivity of Orexin type 2 receptor over Orexin type 1 receptor

Some molecules with known Selectivity results, for comparison:
{"columns": ["entry_smiles", "Selectivity"],
 "data": [
  ["Cc1ccc(/N=C(\\NC#N)N[C@H]2COC(C)(C)O[C@H]2c2ccccc2)c(Br)c1", "> 8"],
  ["Cc1ccc(Cl)c(NC(=O)N[C@H]2COC(C)(C)O[C@H]2c2ccccc2)c1", "> 80"],
  ["CC1(C)OC[C@H](NC(=O)Nc2ccc(Br)cc2)[C@H](c2ccccc2)O1", "> 40"],
  ["Cc1cc(Br)ccc1NC(=O)N[C@H]1COC(C)(C)O[C@H]1c1ccccc1", 200]
]}

GET /value?item= CC1(C)OC[C@H](NC(=O)Cc2ccccc2Br)[C@H](c2ccccc2)O1 &field=Selectivity returns > 7

---

Target sequence: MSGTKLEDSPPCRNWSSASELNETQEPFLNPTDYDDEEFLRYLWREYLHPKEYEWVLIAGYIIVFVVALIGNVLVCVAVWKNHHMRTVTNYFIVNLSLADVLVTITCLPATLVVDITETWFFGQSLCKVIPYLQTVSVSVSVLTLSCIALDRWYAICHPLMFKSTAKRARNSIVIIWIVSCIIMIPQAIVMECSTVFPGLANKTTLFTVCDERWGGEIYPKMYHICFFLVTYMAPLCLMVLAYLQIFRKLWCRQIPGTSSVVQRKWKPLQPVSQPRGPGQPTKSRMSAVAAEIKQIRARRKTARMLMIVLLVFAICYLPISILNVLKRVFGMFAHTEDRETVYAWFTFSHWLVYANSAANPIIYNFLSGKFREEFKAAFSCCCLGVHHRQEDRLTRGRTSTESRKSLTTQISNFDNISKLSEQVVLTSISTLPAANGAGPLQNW
measurement_type: pKi
Scale for pKi: -log10 of concentration given in mol/L; no unit attached.

Some compounds with known pKi results, for comparison:
{"columns": ["entry_smiles", "pKi"],
 "data": [
  ["CC1(C)OC[C@H](NC(=O)Nc2cc(Cl)ccc2Cl)[C@H](c2ccccc2)O1", 7.20],
  ["Cc1cc(Br)ccc1NC(=O)N[C@H]1COC(C)(C)O[C@H]1c1ccccc1", 7.40],
  ["CC(C)c1ccccc1NC(=O)N[C@H]1COC(C)(C)O[C@H]1c1ccccc1", 5.60],
  ["CC1(C)OC[C@H](NC(=O)Nc2ccc(Br)cc2Br)[C@H](c2ccccc2)O1", 8.30],
  ["Cc1ccc(/N=C(\\NC#N)N[C@H]2COC(C)(C)O[C@H]2c2ccccc2)c(Br)c1", 5.90]
]}

GET /value?item= CC1(C)OC[C@H](NC(=O)Nc2ccccc2-c2ccccc2Cl)[C@H](c2ccccc2)O1 &field=pKi returns 7.60

GET /value?item= CC1(C)OC[C@H](NC(=O)Nc2cccc(Br)c2)[C@H](c2ccccc2)O1 &field=pKi returns 6.00

GET /value?item= CC1(C)OC[C@H](NC(=O)Nc2ccccc2-c2cccs2)[C@H](c2ccccc2)O1 &field=pKi returns 7.30

GET /value?item= CC1(C)OC[C@H](NC(=O)Nc2ccccc2-c2cccnc2)[C@H](c2ccccc2)O1 &field=pKi returns 6.50

---

Species on record: Homo sapiens
assay_comment: Selectivity of Orexin type 2 receptor over Orexin type 1 receptor
Recorded Selectivity for the following compounds
# answer = number (no unit)

{"columns": ["entry_smiles", "measurement"],
 "data": [
  ["CC1(C)OC[C@H](NC(=O)Nc2ccccc2-c2ccsc2)[C@H](c2ccccc2)O1", 30]
]}

Now for another entry.
GET /value?item= CC1(C)OC[C@H](NC(=O)Nc2ccccc2-c2ccccc2)[C@H](c2ccccc2)O1 &field=Selectivity returns 4

---

Species on record: Homo sapiens
assay_comment: Selectivity of Orexin type 2 receptor over Orexin type 1 receptor
measurement_type: Selectivity

{"columns": ["entry_smiles", "Selectivity"],
 "data": [
  ["CC1(C)OC[C@H](NC(=O)Nc2cccc(Br)c2)[C@H](c2ccccc2)O1", "> 9"]
]}

Now for another entry.
GET /value?item= CC1(C)OC[C@H](NC(=O)Nc2ccccc2-c2cccc(Cl)c2)[C@H](c2ccccc2)O1 &field=Selectivity returns 6
